This section presents compounds with their documented Ki values.
subject of test: UGT2B7 (Homo sapiens)
experimental details: biochemical
result type: Ki (µM)

>>> df
                                   compound  result_type  unit_symbol  result_number
0  COc1ccccc1N1CCN(C[C@H](O)COc2cccc3ccccc23)CC1 [S(-)-NAF]           Ki           µM           18.5
1  COc1ccccc1N1CCN(C[C@@H](O)COc2cccc3ccccc23)CC1 [R(+)-NAF]           Ki           µM           12.1

----------
subject of test: UGT2B7 (Homo sapiens, UniProt P16662)
Sequence (P16662 24-529): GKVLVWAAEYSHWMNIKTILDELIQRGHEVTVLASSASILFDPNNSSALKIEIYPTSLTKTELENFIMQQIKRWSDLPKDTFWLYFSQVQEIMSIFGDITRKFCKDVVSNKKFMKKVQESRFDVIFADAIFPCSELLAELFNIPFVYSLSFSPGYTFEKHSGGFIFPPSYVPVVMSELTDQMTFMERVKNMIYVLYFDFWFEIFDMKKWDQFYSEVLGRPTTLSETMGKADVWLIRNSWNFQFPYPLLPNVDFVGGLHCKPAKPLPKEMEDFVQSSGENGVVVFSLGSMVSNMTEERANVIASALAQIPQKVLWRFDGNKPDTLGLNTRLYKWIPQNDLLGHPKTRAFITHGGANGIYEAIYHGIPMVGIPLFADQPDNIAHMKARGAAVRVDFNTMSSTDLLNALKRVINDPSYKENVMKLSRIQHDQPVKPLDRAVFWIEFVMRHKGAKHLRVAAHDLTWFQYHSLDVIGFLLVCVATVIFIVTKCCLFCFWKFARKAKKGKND
experimental details: Inhibition screening of recombinant UGTs by NAF enantiomers, UGT2B7 (4-MU)
Format: in vitro ADME
Design: purchased BD Gentest
details: recombinant UGT2B7, probe 4-MU, 10 μM NAF enantiomer, read-out: Inhibition of 4-MU-G formation
result type: inhibition at 10 μM

>>> df
                                   compound          result_type  result
0  COc1ccccc1N1CCN(C[C@@H](O)COc2cccc3ccccc23)CC1 [R(+)-NAF]  inhibition at 10 μM   > 50%
1  COc1ccccc1N1CCN(C[C@H](O)COc2cccc3ccccc23)CC1 [S(-)-NAF]  inhibition at 10 μM   > 50%

----------
Tested on: UGT2B4/UGT2B7 (NAF glucuronidation)
experimental details: Inhibition of the glucuronidation of NAF enantiomers by specific UGT inhibitors in pooled HLM
details: human, pooled human liver microsomes, pH 7.5, probe R(+)-NAF 50 μM, S(-)-NAF 20 μM
result type: inhibition at 45 min, 2.5 mM

In [3]: df
Out[3]:
                                   molecule                   result_type  result
0  OC(Cn1cncn1)(Cn1cncn1)c1ccc(F)cc1F [Fluconazole, fluconazole]  inhibition at 45 min, 2.5 mM    ~55%

----------
subject of test: UGT2B15 (Homo sapiens, UniProt P54855)
Construct: purchased BD Gentest
Sequence (P54855 24-530): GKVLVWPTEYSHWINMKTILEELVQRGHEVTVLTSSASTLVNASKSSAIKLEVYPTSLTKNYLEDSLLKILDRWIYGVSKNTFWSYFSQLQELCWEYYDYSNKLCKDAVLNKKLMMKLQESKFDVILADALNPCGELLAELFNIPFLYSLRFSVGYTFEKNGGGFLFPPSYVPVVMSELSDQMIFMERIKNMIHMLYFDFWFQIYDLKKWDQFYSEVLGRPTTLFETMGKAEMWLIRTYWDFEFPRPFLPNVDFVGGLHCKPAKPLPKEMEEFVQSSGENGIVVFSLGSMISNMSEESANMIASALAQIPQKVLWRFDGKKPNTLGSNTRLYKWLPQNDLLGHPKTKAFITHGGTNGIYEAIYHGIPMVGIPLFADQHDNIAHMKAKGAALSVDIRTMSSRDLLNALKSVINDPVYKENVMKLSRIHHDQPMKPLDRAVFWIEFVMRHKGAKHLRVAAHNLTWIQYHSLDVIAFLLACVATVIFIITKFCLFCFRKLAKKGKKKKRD
experimental details: Inhibition screening of recombinant UGTs by NAF enantiomers, UGT2B15 (4-MU)
Assay type: in vitro ADME
details: recombinant UGT2B15, probe 4-MU, 100 μM NAF enantiomer, read-out: Inhibition of 4-MU-G formation
inhibition at 100 μM values, listed per item
result type: inhibition at 100 μM

In [3]: df
Out[3]:
                                   molecule                         subject_of_test           result_type  result
0  COc1ccccc1N1CCN(C[C@@H](O)COc2cccc3ccccc23)CC1 [R(+)-NAF]  UGT2B15 (Homo sapiens, UniProt P54855)  inhibition at 100 μM   > 75%
1  COc1ccccc1N1CCN(C[C@H](O)COc2cccc3ccccc23)CC1 [S(-)-NAF]  UGT2B15 (Homo sapiens, UniProt P54855)  inhibition at 100 μM   > 75%

----------
Tested on: human liver microsomes (HLM)
experimental details: Kinetics of NAF enantiomer glucuronidation by human liver microsomes
Type: in vitro ADME
result type: Kinetics type

>>> df
                                   molecule    result_type                  result
0  COc1ccccc1N1CCN(C[C@H](O)COc2cccc3ccccc23)CC1 [S(-)-NAF]  Kinetics type  Michaelis–Menten model
1  COc1ccccc1N1CCN(CC(COc2cccc3ccccc23)OC2OC(C(=O)O)C(O)C(O)C2O)CC1 (stereo not drawn) [R(+)-NAF-G]  Kinetics type        Michaelis–Menten
2  COc1ccccc1N1CCN(C[C@@H](O)COc2cccc3ccccc23)CC1 [R(+)-NAF]  Kinetics type  Michaelis–Menten model
3  COc1ccccc1N1CCN(CC(COc2cccc3ccccc23)OC2OC(C(=O)O)C(O)C(O)C2O)CC1 (stereo not drawn) [S(-)-NAF-G]  Kinetics type        Michaelis–Menten
